measured-on: T1, human CD3 E&D complex protein (Sino Biological Inc., CT026H0323H) (human, UniProt P07766 23-126; P04234 22-105)
T1 construct: bought heterodimer; also called human CD3 protein (CT026H0323H)
test-description: BLI, antibody on sensor
metric: Kd (nM)
Give bare numbers, in nM.

Below, 2 binders whose answers are already recorded.
{"binder": "hzsp34.15 (antibody, human IgG1, lambda, L234A L235A, V domains shown, IgG1 L234A L235A, lambda) VH: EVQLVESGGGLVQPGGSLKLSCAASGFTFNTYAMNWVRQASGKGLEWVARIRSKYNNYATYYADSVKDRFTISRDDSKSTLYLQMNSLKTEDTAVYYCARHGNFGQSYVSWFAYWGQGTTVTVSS VL: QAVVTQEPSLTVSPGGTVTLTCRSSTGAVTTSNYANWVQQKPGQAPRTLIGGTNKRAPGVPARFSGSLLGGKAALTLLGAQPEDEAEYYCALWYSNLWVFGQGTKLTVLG", "Kd (nM)": 3.13}
{"binder": "hzsp34.12 (antibody, human IgG1, lambda, L234A L235A, V domains shown, IgG1 L234A L235A, lambda) VH: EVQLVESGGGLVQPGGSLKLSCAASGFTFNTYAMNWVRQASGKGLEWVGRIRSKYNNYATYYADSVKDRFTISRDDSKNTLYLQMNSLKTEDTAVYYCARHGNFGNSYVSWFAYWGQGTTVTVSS VL: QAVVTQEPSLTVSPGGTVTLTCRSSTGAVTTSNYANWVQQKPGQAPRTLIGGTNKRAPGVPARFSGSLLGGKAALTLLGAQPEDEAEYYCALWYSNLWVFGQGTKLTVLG", "Kd (nM)": 6.19}

Query binder follows.
Looking up hzsp34.37 (antibody, human IgG1, kappa, L234A L235A, V domains shown, IgG1 L234A L235A, kappa) VH: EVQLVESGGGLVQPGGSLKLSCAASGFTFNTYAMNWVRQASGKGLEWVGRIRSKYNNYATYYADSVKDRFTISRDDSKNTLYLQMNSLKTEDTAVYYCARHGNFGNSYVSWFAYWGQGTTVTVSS VL: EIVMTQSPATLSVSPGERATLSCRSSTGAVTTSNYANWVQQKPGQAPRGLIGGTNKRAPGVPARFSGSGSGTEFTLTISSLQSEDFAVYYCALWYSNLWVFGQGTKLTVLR , I found its Kd recorded as 9.16

Measured values drawn from patent US20230374132A1 for this set.
